target-under-test: Neuronal acetylcholine receptor subunit alpha-7 (Rattus norvegicus)
Sequence (Q05941 whole entry): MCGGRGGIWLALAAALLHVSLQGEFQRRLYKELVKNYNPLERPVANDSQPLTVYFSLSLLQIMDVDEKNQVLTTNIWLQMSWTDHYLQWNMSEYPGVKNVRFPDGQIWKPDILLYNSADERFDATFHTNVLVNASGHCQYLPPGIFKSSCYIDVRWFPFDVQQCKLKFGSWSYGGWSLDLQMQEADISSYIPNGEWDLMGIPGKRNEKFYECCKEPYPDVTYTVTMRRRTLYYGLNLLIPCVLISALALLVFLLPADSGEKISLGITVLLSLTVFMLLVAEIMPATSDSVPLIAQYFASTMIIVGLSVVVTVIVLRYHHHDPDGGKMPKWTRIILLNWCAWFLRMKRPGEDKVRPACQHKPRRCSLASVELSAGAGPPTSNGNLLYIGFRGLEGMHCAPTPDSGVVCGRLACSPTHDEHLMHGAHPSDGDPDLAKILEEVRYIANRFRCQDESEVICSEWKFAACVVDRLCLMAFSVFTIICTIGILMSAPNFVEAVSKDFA
experiment-description: Binding affinity to rat alpha7 nAChR expressed in Xenopus laevis oocytes
Type: cell-based, Oocyte
observation-type: pKi
Please note pKi is a logarithmic value: minus log10 of concentration in mol/L. Answer with that number alone.

Provide one value: measured pKi of c1cnc2cc3c(cc2n1)[C@@H]1CNC[C@H]3C1
6.52

---

target-under-test: Neuronal acetylcholine receptor; alpha3/beta4 (Homo sapiens, UniProt P30926+P32297)
Sequence (P30926 whole entry): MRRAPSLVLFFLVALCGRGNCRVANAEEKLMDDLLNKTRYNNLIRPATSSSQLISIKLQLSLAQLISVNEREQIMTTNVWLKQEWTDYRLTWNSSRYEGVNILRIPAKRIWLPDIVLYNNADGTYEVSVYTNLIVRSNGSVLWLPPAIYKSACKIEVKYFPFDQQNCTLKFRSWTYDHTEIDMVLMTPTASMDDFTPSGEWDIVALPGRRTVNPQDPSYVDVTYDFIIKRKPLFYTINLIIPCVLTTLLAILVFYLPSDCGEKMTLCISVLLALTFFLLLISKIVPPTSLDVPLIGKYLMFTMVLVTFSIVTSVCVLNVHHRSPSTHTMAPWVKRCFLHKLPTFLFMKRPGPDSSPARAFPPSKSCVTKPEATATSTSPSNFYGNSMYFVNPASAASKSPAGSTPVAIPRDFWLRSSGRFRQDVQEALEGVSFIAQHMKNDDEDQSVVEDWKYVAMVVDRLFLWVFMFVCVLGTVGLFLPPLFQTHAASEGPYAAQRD
Sequence (P32297 whole entry): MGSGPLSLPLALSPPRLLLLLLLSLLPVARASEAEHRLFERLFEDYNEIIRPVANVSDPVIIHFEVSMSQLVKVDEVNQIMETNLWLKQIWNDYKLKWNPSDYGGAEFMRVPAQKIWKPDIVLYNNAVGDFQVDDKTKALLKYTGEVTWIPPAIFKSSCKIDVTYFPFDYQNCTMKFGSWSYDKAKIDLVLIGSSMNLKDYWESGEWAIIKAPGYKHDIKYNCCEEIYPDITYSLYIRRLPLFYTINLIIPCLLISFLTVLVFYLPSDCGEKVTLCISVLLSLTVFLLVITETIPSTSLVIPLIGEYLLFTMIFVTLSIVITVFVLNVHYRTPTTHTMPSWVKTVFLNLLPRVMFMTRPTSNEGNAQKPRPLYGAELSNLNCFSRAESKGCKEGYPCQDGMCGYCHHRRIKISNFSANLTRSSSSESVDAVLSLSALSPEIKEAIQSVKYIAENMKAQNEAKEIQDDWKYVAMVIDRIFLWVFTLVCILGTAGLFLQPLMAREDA
experiment-description: Displacement of [3H]epibatidine from human alpha3beta4 nAChR expressed in human SH-SY5Y cells
pKi: −log10 of the molar value.
Param threshold (6) applies to pKi; output label 1 when value >= threshold, label 0 when value < threshold.

Solved cases (6 shown):
>  <compound>
C1=C(c2cncnc2)CC2CNCC1C2 (configuration not stated)

>  <answer-label>
label 1

$$$$
>  <compound>
N#Cc1ccncc1C1=CC2CNCC(C1)C2 (configuration not stated)

>  <answer-label>
label 1

$$$$
>  <compound>
CN1CC2C=C(c3cnccc3Cl)CC(C2)C1 (configuration not stated)

>  <answer-label>
label 0

$$$$
>  <compound>
COc1ccc(C2=CC3CNCC(C2)C3)cn1 (configuration not stated)

>  <answer-label>
label 1

$$$$
>  <compound>
CN1CC2C=C(c3cncc(C#N)c3)CC(C2)C1 (configuration not stated)

>  <answer-label>
label 0

$$$$
>  <compound>
Fc1cncc(C2=CC3CNCC(C2)C3)c1 (configuration not stated)

>  <answer-label>
label 1

$$$$

Now examine the next entry.
# check: pKi of COc1cncc(C2=CC3CNCC(C2)C3)c1 (configuration not stated) is greater than or equal to 6
label 1
